All values here come from ChEMBL document CHEMBL1137358.

So I've got a bunch of compounds here, and I need their selectivity ratio values.
# Tested on: CYP2A6 over CYP3A4
# experimental details: Selectivity for CYP2A6 over CYP3A4
# test conditions: human
I only need the number, thanks.

Consider the compound shown here: NCc1ccc(-c2ccccc2)s1 What is its recorded selectivity ratio? 159

Consider the compound shown here: c1cncc(-c2c[nH]cn2)c1 What is its recorded selectivity ratio? 93

Consider the compound shown here: Cc1ccsc1-c1ccc(F)nc1 What is its recorded selectivity ratio? 5.9

Consider the compound shown here: Cc1csc(-c2cccnc2)n1 What is its recorded selectivity ratio? 5.6

Consider the compound shown here: NCc1ccc(-c2ccccc2)o1 What is its recorded selectivity ratio? 105

Consider the compound shown here: CN(C)Cc1ccc(-c2cccnc2)s1 What is its recorded selectivity ratio? 1.6

Consider the compound shown here: c1cncc(-c2ccc(C3SCCS3)o2)c1 What is its recorded selectivity ratio? 0.1

Consider the compound shown here: c1cncc(-c2ccsc2)c1 What is its recorded selectivity ratio? 40

Consider the compound shown here: CC(=O)SCc1ccc(-c2cccnc2)o1 What is its recorded selectivity ratio? 1.7
